Data origin, for the record: patent US20240391954A1

target entity: human MC4R (Homo sapiens, UniProt P32245)
Construct: host or cells: HEK-293 cells stably expressing the GScAMP22F split-luciferase cAMP sensor and hMC4R, G418 selection
Sequence (P32245 whole entry): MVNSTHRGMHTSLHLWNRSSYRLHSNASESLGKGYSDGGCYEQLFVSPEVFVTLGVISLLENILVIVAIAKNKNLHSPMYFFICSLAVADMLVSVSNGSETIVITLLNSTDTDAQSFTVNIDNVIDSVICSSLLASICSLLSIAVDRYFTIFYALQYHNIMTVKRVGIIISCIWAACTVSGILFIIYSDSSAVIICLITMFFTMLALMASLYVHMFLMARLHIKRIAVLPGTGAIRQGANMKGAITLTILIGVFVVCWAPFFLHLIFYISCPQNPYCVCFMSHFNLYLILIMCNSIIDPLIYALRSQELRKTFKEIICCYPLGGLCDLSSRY
assay procedure: split-luciferase cAMP sensor assay, agonist mode (measurement window 1), hMC4R
Format: cell-based
assay context: agonist mode, hMC4R stable cell line
Protocol: The stable cell lines were grown and maintained in selection media consisting of Dulbecco's modified Eagle media (DMEM) with 4.5 g/l D-glucose, and 4 mM L-glutamine (Thermo Fisher Scientific, Waltham, MA), supplemented with 10% fetal bovine serum, 100 units/ml penicillin, 100 μg/ml streptomycin, 2.5 μg/ml amphotericin B, 200 μg/ml hygromycin B (for positive selection of the GScAMP22f luciferase reporter), and Geneticin™ (G418) 700 μg/ml (for MC3R or MC4R selection). […]
Positions of bridges follow the written chain, without caps; N, C: chain ends. Non-standard residues stand in square brackets, D forms with d. Residues, ends and D or L forms follow the SMILES beside them. dPhe(4-Br) = N[C@H](Cc1ccc(Br)cc1)C(=O)O; d(αMeF) = C[C@@](N)(Cc1ccccc1)C(=O)O; d(hPhe) = N[C@H](CCc1ccccc1)C(=O)O; Nle = CCCC[C@H](N)C(=O)O
value type: MC4R cAMP % max activation

Some entries whose results are on file:
CCCC[C@H](NC(=O)[C@H](CCCNC(=N)N)NC(C)=O)C(=O)N[C@H]1CSSC[C@@H](C(N)=O)NC(=O)[C@H](Cc2c[nH]c3ccccc23)NC(=O)[C@H](CCCNC(=N)N)NC(=O)[C@@H](Cc2ccc(Br)cc2)NC(=O)[C@H](CCCNC(=N)N)NC1=O [CTX-1230] (Ac-R[Nle]CR[dPhe(4-Br)]RWC-NH2; disulfide 3-8): (27%)
CC(=O)N[C@@H](CCCNC(=N)N)C(=O)N[C@H]1CSSC[C@@H](C(N)=O)NC(=O)[C@@H](Cc2c[nH]c3ccccc23)NC(=O)[C@H](CCCNC(=N)N)NC(=O)[C@@H](Cc2c[nH]c3ccccc23)NC(=O)[C@H](CCCNC(=N)N)NC(=O)[C@@H](C)NC1=O [CTX-1244] (Ac-RC[dA]R[dW]R[dW]C-NH2; disulfide 2-8 (inferred)): (42%)
CC(=O)N[C@@H](CCCNC(=N)N)C(=O)N[C@H]1CSSC[C@@H](C(N)=O)NC(=O)[C@@H](Cc2c[nH]c3ccccc23)NC(=O)[C@H](CCCNC(=N)N)NC(=O)[C@@](C)(Cc2ccccc2)NC(=O)[C@H](CCCNC(=N)N)NC(=O)[C@@H](C)NC1=O [CTX-1240] (Ac-RC[dA]R[d(αMeF)]R[dW]C-NH2; disulfide 2-8): (81%)
CC(=O)N[C@@H](CCCNC(=N)N)C(=O)N[C@H]1CSSC[C@@H](C(N)=O)NC(=O)[C@@H](Cc2c[nH]c3ccccc23)NC(=O)[C@H](CCCNC(=N)N)NC(=O)[C@@H](CCc2ccccc2)NC(=O)[C@H](CCCNC(=N)N)NC(=O)[C@@H](C)NC1=O [CTX-1239] (Ac-RC[dA]R[d(hPhe)]R[dW]C-NH2; disulfide 2-8): (28%)

Below: the item to evaluate.
Qu. Give MC4R cAMP % max activation for CCCC[C@H](NC(=O)[C@H](CCCNC(=N)N)NC(C)=O)C(=O)N[C@H]1CSSC[C@@H](C(N)=O)NC(=O)[C@@H](Cc2c[nH]c3ccccc23)NC(=O)[C@H](CCCNC(=N)N)NC(=O)[C@@H](Cc2ccc(Br)cc2)NC(=O)[C@H](CCCNC(=N)N)NC1=O [CTX-1232] (Ac-R[Nle]CR[dPhe(4-Br)]R[dW]C-NH2; disulfide 3-8 (inferred))
Ans. (46%)
